Measured Adjusted binding affinity, listed per entry for reference.
- experimental system: human somatostatin receptor subtype SSTR4 (human) (UniProt P31391)
- Sequence (P31391 whole entry): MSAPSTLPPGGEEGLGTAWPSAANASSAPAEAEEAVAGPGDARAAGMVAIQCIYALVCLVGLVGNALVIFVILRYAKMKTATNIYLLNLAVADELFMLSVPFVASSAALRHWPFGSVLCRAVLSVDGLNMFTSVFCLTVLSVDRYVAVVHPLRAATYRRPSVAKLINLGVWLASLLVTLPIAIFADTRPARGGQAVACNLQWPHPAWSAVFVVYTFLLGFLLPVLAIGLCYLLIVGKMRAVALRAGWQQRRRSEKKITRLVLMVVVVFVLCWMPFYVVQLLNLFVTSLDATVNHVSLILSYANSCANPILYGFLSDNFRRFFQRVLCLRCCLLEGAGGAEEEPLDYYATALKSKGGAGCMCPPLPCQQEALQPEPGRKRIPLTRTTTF
- assay summary: FACS, transfected HEK-293 cells; row normalised to highest
*1 amine or outer side, *2 acyl side, *3 side chain or, on linkers, in order; H or OH if unused. Bridges are numbered along the chain shown (N, C = ends). Primed or numbered codes have the meaning given here. [ ]: non-standard residue; d: D form. N(2-mercaptoethyl)Gly = O=C(CN(CCS[*:3])[*:1])[*:2]; FITC′ = fluorescein isothiocyanate; Orn = NCCC[C@H](N)C(=O)O; Aib = CC(C)(N)C(=O)O; GABA = NCCCC(=O)O
observation type: Adjusted binding affinity

binder: {FITC′-GABA}-[dF]CFW[dW][Aib]TF[N(2-mercaptoethyl)Gly]-NH2 (disulfide 2-9) [Compound 13]
observed value: 0.44

binder: {FITC′-GABA}-[dF]RCY[dW]KTF[N(2-mercaptoethyl)Gly]-NH2 (disulfide 3-9) [Compound 6]
observed value: 0.07

binder: XCFWXXTFX (FITC-GABA-DPhe-Cys*-Phe-Trp-DTrp-LysAc-Thr-Phe-GlyS2*-NH2 (* = S-S bond; LysAc = acetyllysine; GlyS2 = N-thioethyl glycine; C-terminal amide)) [Compound 14]
observed value: 1

binder: {FITC′-GABA}-[dF]RCF[dW]KTF[N(2-mercaptoethyl)Gly]-NH2 (disulfide 3-9) [Compound 2]
observed value: 0.8

binder: XCFWXXTFX (FITC-GABA-DPhe-Cys*-Phe-Trp-DTrp-Orn-Thr-Phe-GlyS2*-NH2 (* = S-S bond; GlyS2 = N-thioethyl glycine; Orn = ornithine; C-terminal amide)) [Compound 3]
observed value: 0.85

binder: {FITC′-GABA}-[dF]CY[dW][Orn]TF[N(2-mercaptoethyl)Gly]-NH2 (disulfide 2-8) [Compound 7]
observed value: 0.75

binder: XCFWXKTFX (FITC-GABA-DPhe-Cys*-Phe-Trp-DTrp-Lys-Thr-Phe-GlyS2*-NH2 (* = S-S bond; GlyS2 = N-thioethyl glycine; FITC-GABA on the N-terminal amine; C-terminal amide)) [Compound 1]
observed value: 0.79

binder: XXFWXKTFX (FITC-GABA-DPhe-HCys*-Phe-Trp-DTrp-Lys-Thr-Phe-GlyS2*-NH2 (* = S-S bond; HCys = homocysteine; GlyS2 = N-thioethyl glycine; C-terminal amide)) [Compound 11]
observed value: 0.71
